These measurements were taken from PubChem BioAssay (NCATS).

Biological target: Cytochrome P450 2D6 (Homo sapiens)
Test: Cytochrome P450 family 2 subfamily D member 6 (CYP2D6) small molecule antagonists: luciferase biochemical (cell-free) qHTS assay (AID 1645840); note: nearly all actives have a fitted effect of over 55% in size
Conditions: P450-Glo CYP2D6 enzyme, luciferin luminescence, 1 h; series mostly up to 57.4 µM
Inconclusive results are not listed. Calls of active or inactive are those of the source. Calls come from the whole dose curve; as a rule, active = well fitted inhibition curve with a large enough effect in the repeat runs; inconclusive = weak or mixed curves; inactive = flat fitted curve, though single readings scatter.
Please state which outcome applies, choosing from active, inactive

Solved cases (5 shown):
Cc1ccc(C(=O)Nc2ccc(S(=O)(=O)O)c3cc(S(=O)(=O)O)cc(S(=O)(=O)O)c23)cc1NC(=O)c1cccc(NC(=O)Nc2cccc(C(=O)Nc3cc(C(=O)Nc4ccc(S(=O)(=O)O)c5cc(S(=O)(=O)O)cc(S(=O)(=O)O)c45)ccc3C)c2)c1 | inactive
COc1ccc(C2CNC(=O)C2)cc1OC1CCCC1 (stereo unspecified) | inactive
NCCCCCC(=O)O | inactive
N[C@@H](Cc1c[nH]c2ccc(O)cc12)C(=O)O | active
Clc1ccccc1C(c1ccccc1)(c1ccccc1)n1ccnc1 | active

Challenge: Dear colleague, could you share the recorded outcome for CC(COc1ccccc1)N(CCCl)Cc1ccccc1 (stereo unspecified) when you have a moment?
Response given: active

Challenge: Dear colleague, could you share the recorded outcome for CN1CCC(=C2c3ccccc3CC(=O)c3sccc32)CC1 when you have a moment?
Response given: active

Challenge: Dear colleague, could you share the recorded outcome for CC1(CN2CCC(n3c(=O)[nH]c4ccccc43)CC2)OCc2ccccc2-n2cccc21 (stereo unspecified) when you have a moment?
Response given: active
